Protein target, amino acids: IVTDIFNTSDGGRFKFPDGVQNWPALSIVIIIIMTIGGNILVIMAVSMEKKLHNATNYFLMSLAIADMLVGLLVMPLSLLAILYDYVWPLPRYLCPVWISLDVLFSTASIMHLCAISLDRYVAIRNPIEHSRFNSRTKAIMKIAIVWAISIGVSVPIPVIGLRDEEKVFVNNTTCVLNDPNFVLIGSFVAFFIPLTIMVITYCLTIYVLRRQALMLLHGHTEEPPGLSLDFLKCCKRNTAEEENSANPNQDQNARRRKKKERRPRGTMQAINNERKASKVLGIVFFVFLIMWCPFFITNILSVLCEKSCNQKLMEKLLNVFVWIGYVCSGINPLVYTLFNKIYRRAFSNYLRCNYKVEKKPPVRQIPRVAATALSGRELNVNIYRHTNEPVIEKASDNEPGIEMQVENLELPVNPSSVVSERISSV
REPORTED_METRIC: Ki (nM)
One number for each entry, in nM.

1) CC(C)N(CCOc1ncccc1OCCOc1nccnc1N1CCNC[C@H]1C)C(C)C [Example 2] : 10

The record that follows has no Ki shown yet.
query: If you can, please state the reported Ki value of C[C@@H]1CNCCN1c1nccnc1OCCOc1cccnc1OCCN(C)C [Example 1] .
result: 12

###

Provide the reported Ki of each item.
target: human 5-HT1A receptor (Homo sapiens, UniProt P08908)
Sequence (P08908 whole entry): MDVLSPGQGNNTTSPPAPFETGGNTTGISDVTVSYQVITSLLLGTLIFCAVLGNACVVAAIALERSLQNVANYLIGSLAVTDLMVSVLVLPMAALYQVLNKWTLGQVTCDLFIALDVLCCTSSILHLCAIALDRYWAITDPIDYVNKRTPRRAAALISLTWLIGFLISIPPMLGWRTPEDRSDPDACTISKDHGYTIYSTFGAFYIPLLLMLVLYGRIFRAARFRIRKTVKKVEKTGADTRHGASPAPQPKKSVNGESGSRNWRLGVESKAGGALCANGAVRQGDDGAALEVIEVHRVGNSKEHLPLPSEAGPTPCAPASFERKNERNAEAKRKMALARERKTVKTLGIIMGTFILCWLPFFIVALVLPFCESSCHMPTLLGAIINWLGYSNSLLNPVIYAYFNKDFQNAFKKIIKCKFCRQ
One number for each entry, in µM.

1. C[C@@H]1CNCCN1c1nccnc1OCCOc1cccnc1OCCN(C)C : 0.8

query: # query: Ki of entry CC(C)N(CCOc1ncccc1OCCOc1nccnc1N1CCNC[C@H]1C)C(C)C
result: 0.38

###

target: human 5-HT1B receptor (Homo sapiens)
Sequence (P28222 whole entry): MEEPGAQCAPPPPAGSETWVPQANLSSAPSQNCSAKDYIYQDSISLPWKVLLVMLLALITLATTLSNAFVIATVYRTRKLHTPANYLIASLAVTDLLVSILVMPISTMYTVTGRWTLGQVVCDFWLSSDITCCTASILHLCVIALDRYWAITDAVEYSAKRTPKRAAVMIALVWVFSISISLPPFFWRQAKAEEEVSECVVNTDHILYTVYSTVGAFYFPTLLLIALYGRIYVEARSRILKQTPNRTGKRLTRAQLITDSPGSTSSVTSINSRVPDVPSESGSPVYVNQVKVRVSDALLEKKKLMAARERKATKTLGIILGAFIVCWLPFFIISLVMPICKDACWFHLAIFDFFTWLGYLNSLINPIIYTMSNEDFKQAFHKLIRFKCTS
REPORTED_METRIC: pKi
Numbers only, as −log10 of the molar value.

query: Could you share which pKi value was measured for CC(C)N(CCOc1ncccc1OCCOc1nccnc1N1CCNC[C@H]1C)C(C)C ?
result: 6.70
